# System: NCI-H226
# test_method_notes: NCI 60 single concentration growth inhibition
# Type: cell-based, human
# conditions_used: Homo sapiens, NCI-H226, Non-small cell lung cancer, read-out: GI%
Could you please report measured inhibition at 10 µM for the items listed next?
Numbers only, in %.

COc1ccc(-c2nc3cc(Cl)c(Cl)cc3n2CC(=O)NN=Cc2cccc(O)c2)cc1 [Compound 10a]	43.7

I need inhibition at 10 µM for every entry listed below, if you could help.
1. COc1ccc(-c2nc3cc(Cl)c(Cl)cc3n2CC(=O)NN=Cc2ccc(O)cc2)cc1 [Compound 10b]
2. COc1ccc(-c2nc3cc(Cl)c(Cl)cc3n2CC(=O)NN=Cc2cccc(OC)c2)cc1 [Compound 10c]
3. COc1ccc(-c2nc3cc(Cl)c(Cl)cc3n2CC(=O)NN=Cc2ccc(O)c(OC)c2)cc1 [Compound 10l]
4. COC(=O)COc1cc(C=NNC(=O)Cn2c(-c3ccc(OC)cc3)nc3cc(Cl)c(Cl)cc32)ccc1OC [Compound 10o]

35.5
17.1
47.5
10.2

Where do these numbers come from? They come from paper PMC11844072.
